Provenance of the data: patent US20040121946A9

MEASURED_ON: DRB1*0701 (DR7) (Homo sapiens, UniProt P01903+P01911, A100R/A102G/A103Q/D57E/D86V/E43K/F76Y/K127E/L162R/M171V/P40G/Q125H/Q99D/R33Q/R42Y/R54Q/S133A/S66F/T210M/V115G/Y107V/Y59L/Y89S)
METHOD_NOTES: HLA class II peptide binding assay, purified HLA
STUDY_CONDITIONS: Table XIX, DR supermotif peptides; unit not given
Where no end group is shown, it is not given here.
Threshold check on DR7 binding data: at or above -0.001 gives 1, strictly below gives 0.

Query string: Could you please find out whether IKVLRENTSPKANKE has DR7 binding data that meets -0.001 or exceeds it?
Result string: 0

Query string: Could you please find out whether PSTFKGTPTAENPEY has DR7 binding data that meets -0.001 or exceeds it?
Result string: 0

Query string: Could you please find out whether QGFFCPDPAPGAGGM has DR7 binding data that meets -0.001 or exceeds it?
Result string: 0

Query string: Could you please find out whether TDGYVAPLTCSPQPE has DR7 binding data that meets -0.001 or exceeds it?
Result string: 0

Query string: Could you please find out whether VCPLHNQEVTAEDGT has DR7 binding data that meets -0.001 or exceeds it?
Result string: 0

Query string: Could you please find out whether DMKLRLPASPETHLD has DR7 binding data that meets -0.001 or exceeds it?
Result string: 0

Query string: Could you please find out whether LTSHSAVVGILLVV has DR7 binding data that meets -0.001 or exceeds it?
Result string: 1

Query string: Could you please find out whether QPDVRPQPPSPREGP has DR7 binding data that meets -0.001 or exceeds it?
Result string: 0

Query string: Could you please find out whether ETELVEPLTPSGAMP has DR7 binding data that meets -0.001 or exceeds it?
Result string: 0

Query string: Could you please find out whether VEPLTPSGAMPNQAQ has DR7 binding data that meets -0.001 or exceeds it?
Result string: 0

Query string: Could you please find out whether ITDFGLARLLDIDET has DR7 binding data that meets -0.001 or exceeds it?
Result string: 0

Query string: Could you please find out whether ELELRKVKVLGSGAF has DR7 binding data that meets -0.001 or exceeds it?
Result string: 1

Query string: Could you please find out whether ASPLTSHSAVVGIL has DR7 binding data that meets -0.001 or exceeds it?
Result string: 1

Query string: Could you please find out whether LLVVVLGVVFGILIK has DR7 binding data that meets -0.001 or exceeds it?
Result string: 1

Query string: Could you please find out whether VVGILLVVVLGVVFG has DR7 binding data that meets -0.001 or exceeds it?
Result string: 0

---

MEASURED_ON: HLA-B*0702 (Homo sapiens, UniProt P01889)
Type: binding
STUDY_CONDITIONS: Table XXIV, B7 supermotif peptides
Where a SMILES comes first, the peptide text is derived from it.
RESULT_TYPE: IC50 (nM)
Record the value in nM, omitting the unit from your answer.

Query string: // fetch IC50 given entry CC[C@H](C)[C@H](NC(=O)[C@@H]1CCCN1C(=O)[C@H](CC(C)C)NC(=O)[C@@H]1CCCN1C(=O)CNC(=O)[C@H](CCC(=O)O)NC(=O)[C@H](CCCNC(=N)N)NC(=O)[C@@H]1CCCN1C(=O)[C@@H](N)Cc1ccccc1)C(=O)O
Result string: 0.3

Query string: // fetch IC50 given entry CC(C)C[C@H](NC(=O)CNC(=O)[C@H](Cc1ccc(O)cc1)NC(=O)[C@H](CS)NC(=O)[C@@H](NC(=O)[C@H](CCCNC(=N)N)NC(=O)[C@H](C)NC(=O)[C@H](CS)NC(=O)[C@@H]1CCCN1C(=O)[C@@H](N)Cc1ccccc1)C(C)C)C(=O)O
Result string: 190

Query string: // fetch IC50 given entry CC(C)C[C@H](NC(=O)CNC(=O)[C@H](Cc1ccc(O)cc1)NC(=O)[C@H](CS)NC(=O)[C@@H](NC(=O)[C@H](CCCNC(=N)N)NC(=O)[C@H](C)NC(=O)[C@H](CS)NC(=O)[C@@H]1CCCN1C(=O)[C@@H](N)CCCCN)C(C)C)C(=O)O [Her2/neu.336] (H-KPCARVCYGL-OH)
Result string: 149

Query string: // fetch IC50 given entry CC[C@H](C)[C@H](NC(=O)[C@@H](NC(=O)[C@@H](NC(=O)[C@H](CCC(=O)O)NC(=O)[C@H](CCC(N)=O)NC(=O)[C@H](CC(N)=O)NC(=O)[C@H](Cc1c[nH]cn1)NC(=O)[C@H](CC(C)C)NC(=O)[C@@H]1CCCN1C(=O)[C@@H](N)CS)C(C)C)[C@@H](C)O)C(=O)O
Result string: 458

Query string: // fetch IC50 given entry CC[C@H](C)[C@H](NC(=O)[C@H](CO)NC(=O)[C@@H](NC(=O)[C@@H](NC(=O)[C@H](CO)NC(=O)[C@@H](NC(=O)[C@H](CC(C)C)NC(=O)[C@@H]1CCCN1C(=O)[C@@H](N)CO)[C@@H](C)O)[C@@H](C)CC)[C@@H](C)CC)C(=O)O
Result string: 86

Query string: // fetch IC50 given entry CC[C@H](C)[C@H](NC(=O)[C@@H]1CCCN1C(=O)[C@H](CCSC)NC(=O)[C@H](Cc1ccc(O)cc1)NC(=O)[C@H](CO)NC(=O)[C@H](CC(C)C)NC(=O)[C@H](CC(=O)O)NC(=O)[C@@H]1CCCN1C(=O)[C@@H](N)Cc1ccccc1)C(=O)O
Result string: 22

Query string: // fetch IC50 given entry CC(C)C[C@H](NC(=O)[C@H](CO)NC(=O)[C@H](CCCNC(=N)N)NC(=O)[C@H](Cc1ccc(O)cc1)NC(=O)[C@H](Cc1ccccc1)NC(=O)[C@@H](NC(=O)[C@H](CO)NC(=O)[C@H](CC(=O)O)NC(=O)[C@H](CC(C)C)NC(=O)[C@@H]1CCCN1C(=O)[C@@H](N)Cc1ccccc1)[C@@H](C)O)C(=O)O
Result string: 42

Query string: // fetch IC50 given entry CC[C@H](C)[C@H](NC(=O)[C@H](C)NC(=O)[C@H](CO)NC(=O)[C@@H](NC(=O)[C@@H](NC(=O)[C@H](CO)NC(=O)[C@@H](NC(=O)[C@H](CC(C)C)NC(=O)[C@@H]1CCCN1C(=O)[C@@H](N)Cc1ccccc1)[C@@H](C)O)[C@@H](C)CC)[C@@H](C)CC)C(=O)O
Result string: 229

Query string: // fetch IC50 given entry CC[C@H](C)[C@H](NC(=O)[C@H](CO)NC(=O)[C@@H](NC(=O)[C@H](CC(C)C)NC(=O)[C@@H]1CCCN1C(=O)[C@@H](N)CO)[C@@H](C)O)C(=O)N[C@H](C(=O)N[C@@H](CO)C(=O)N[C@@H](C)C(=O)N[C@H](C(=O)O)C(C)C)[C@@H](C)CC
Result string: 61

Query string: // fetch IC50 given entry CC[C@H](C)[C@H](NC(=O)[C@@H]1CCCN1C(=O)[C@H](CCSC)NC(=O)[C@H](Cc1ccc(O)cc1)NC(=O)[C@H](CO)NC(=O)[C@H](CC(C)C)NC(=O)[C@H](CC(=O)O)NC(=O)[C@@H]1CCCN1C(=O)[C@@H](N)CCCCN)C(=O)O
Result string: 76

Query string: // fetch IC50 given entry CC(C)C[C@H](NC(=O)[C@H](C)NC(=O)[C@H](CCC(N)=O)NC(=O)[C@H](Cc1c[nH]cn1)NC(=O)[C@@H]1CCCN1C(=O)[C@@H](N)Cc1ccccc1)C(=O)N[C@@H](CC(C)C)C(=O)N[C@@H](Cc1c[nH]cn1)C(=O)N[C@H](C(=O)N[C@@H](C)C(=O)O)[C@@H](C)O
Result string: 393

Query string: // fetch IC50 given entry CC[C@H](C)[C@H](NC(=O)[C@@H]1CCCN1C(=O)[C@H](CC(C)C)NC(=O)[C@@H]1CCCN1C(=O)CNC(=O)[C@H](CCC(=O)O)NC(=O)[C@H](CCCNC(=N)N)NC(=O)[C@@H]1CCCN1C(=O)[C@H](CO)NC(=O)[C@@H]1CCCN1C(=O)[C@@H](N)Cc1ccccc1)C(=O)O
Result string: 190

Query string: // fetch IC50 given entry CC[C@H](C)[C@H](NC(=O)[C@@H](NC(=O)[C@H](Cc1ccc(O)cc1)NC(=O)[C@H](CCCNC(=N)N)NC(=O)CNC(=O)[C@H](CCC(=O)O)NC(=O)[C@@H]1CCCN1C(=O)[C@H](CC(N)=O)NC(=O)[C@@H]1CCCN1C(=O)[C@@H](N)Cc1ccccc1)[C@@H](C)O)C(=O)O
Result string: 324

---

MEASURED_ON: DRB1*0101 (DR1) (Homo sapiens, UniProt P01903+P01911, A100R/D57E/F55L/F60I/F76Y/I96L/L162R/M171V/P40L/Q125E/R42F/V115G/Y59C)
METHOD_NOTES: HLA class II peptide binding assay, purified HLA
STUDY_CONDITIONS: Table XIX, DR supermotif peptides; unit not given
Where no end group is shown, it is not given here.
RESULT_TYPE: DR1 binding data

Query string: // fetch DR1 binding data given entry ITDFGLARLLDIDET
Result string: 0.0048

Query string: // fetch DR1 binding data given entry VCPLHNQEVTAEDGT
Result string: −0.0004

Query string: // fetch DR1 binding data given entry ETELVEPLTPSGAMP
Result string: 0.0060

Query string: // fetch DR1 binding data given entry IKVLRENTSPKANKE
Result string: −0.0005

Query string: // fetch DR1 binding data given entry TDGYVAPLTCSPQPE
Result string: −0.0005

Query string: // fetch DR1 binding data given entry ELELRKVKVLGSGAF
Result string: 0.0160

Query string: // fetch DR1 binding data given entry PSTFKGTPTAENPEY
Result string: −0.0005

Query string: // fetch DR1 binding data given entry ASPLTSHSAVVGIL
Result string: 0.0890

Query string: // fetch DR1 binding data given entry ARLLDIDETEYHADG
Result string: 0.0001
